Data credit: ChEMBL document CHEMBL1129680

Recorded ID50 for the following molecules
target: UniProtKB Q72874; test: Evaluated for the inhibition of HIV-1 Protease.
// return numeric value only (unit: µM, not printed)

Known ID50 results, listed for orientation:
>>> numeric_value("CC(C)CC(NC(=O)OCc1ccccc1)(C(=O)O)C(=O)O")
17
>>> numeric_value("O=C1C2=C(C(=O)c3ccccc31)C(O)(S(=O)(=O)O)C(O)(S(=O)(=O)O)C1N=CC=CC21 (centres undefined)")
2

Enquiry: Report ID50 for O=c1c(C(c2ccc3c(c2)OCO3)c2c(O)oc3ccccc3c2=O)c(O)oc2ccccc12 tested on UniProtKB Q72874.
Return: 30

Enquiry: Note, next up: CCCCCCc1cc2c(cc1O)OC(=O)C(C(c1ccccc1)c1c(O)oc3cc(O)c(CCCCCC)cc3c1=O)C2O (centres undefined)
Return: 0.32

Enquiry: Note, next up: O=C1Oc2ccccc2C(O)C1Sc1c(O)oc2ccccc2c1=O (centres undefined)
Return: 21

Enquiry: Note, next up: O=C(Oc1ccccc1)N(CCO)C(c1ccccc1)C(O)c1ccccc1 (centres undefined)
Return: 32

Enquiry: Note, next up: CC1(C)CC[C@]2(C(=O)O)CC[C@]3(C)C(=CC[C@@H]4[C@@]5(C)C[C@H](O)[C@H](O)[C@@](C)(C(=O)O)[C@H]5CC[C@]43C)[C@@H]2C1
Return: 35

Enquiry: Note, next up: O=C1C(O)=C(C(C2=C(O)C(=O)c3ccccc3C2=O)c2ccc(Cl)cc2Cl)C(=O)c2ccccc21
Return: 24

Enquiry: Note, next up: Cc1cn([C@H]2C[C@H](N=[N+]=[N-])[C@@H](COP(=O)(O)OP(=O)(O)OP(=O)(O)O)O2)c(=O)[nH]c1=O
Return: 54

----------
target: Human immunodeficiency virus type 1 protease (Human immunodeficiency virus 1); assay: Evaluated for the inhibition of HIV-1 Protease.
Recorded log10 of ID50 for the following compounds
Answers are given as log10 of ID50 in µM.

>>> numeric_value("CC(=O)NC(Cc1ccsc1)(C(=O)O)C(=O)O")
1.36
>>> numeric_value("CCCC(=O)C1=C(O)C(Cc2c(O)c(C)c(O)c(C(=O)CCC)c2O)=C(O)C(C)(C)C1=O")
1.41
>>> numeric_value("C[C@]12CCC(=O)C=C1CC[C@@H]1[C@@H]2[C@@H](O)C[C@@]2(C)[C@H]1CC[C@]2(O)C(=O)COC(=O)CCC(=O)O")
1.43
>>> numeric_value("CC(=O)OC1CCC2(C)C(C)C(C)CCC2(O)C1O (stereo not given)")
1.20
>>> numeric_value("O=c1oc2cccc(O)c2c(O)c1Cc1ccccc1")
0.78

Enquiry: # log10 of ID50 lookup, item O=c1oc2c(-c3ccccc3)cccc2c(O)c1-c1ccccc1
Return: 1.11

Enquiry: Note, next up: O=c1oc2ccccc2c(O)c1-c1ccccc1
Return: 1.62

Enquiry: Note, next up: O=C1C(O)=C(C(C2=C(O)C(=O)c3ccccc3C2=O)c2ccc(C(C3=C(O)C(=O)c4ccccc4C3=O)C3=C(O)C(=O)c4ccccc4C3=O)cc2)C(=O)c2ccccc21
Return: -0.12

Enquiry: Note, next up: O=c1c(C(c2ccc(C(c3c(O)oc4ccccc4c3=O)c3c(O)oc4ccccc4c3=O)cc2)c2c(O)oc3ccccc3c2=O)c(O)oc2ccccc12
Return: 0.23

Enquiry: Note, next up: CC(C)c1cccc(C(C)C)c1NC(=O)C(=O)CC(=O)CC(c1ccccc1)c1c(O)oc2ccccc2c1=O (stereo not given)
Return: 1.49
